assay: inhibitors of TNFa-induced NFkB p65 translocation, primary screen, imaging, HUVEC, MLSMR starter and 10KST1 sets (AID 438); conditions: HUVEC TNFa-induced p65 nuclear translocation; measured here: nuclei count (cytotoxicity indicator), at 2.08 µM;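 also: compound added about 3h40 before a 20 min TNFalpha stimulation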
Overview of recorded cell count for various compounds
Number only, please.

item.smiles | value.measured
N#Cc1nc(COc2ccccc2)oc1NCCN1CCOCC1 | 778

Query :: I'd like to know its cell count. The compound in question is O=C(Nc1ccc2c(c1)OCCO2)NC1CCCCC1
Result :: 379

Query :: Record: O=C(Nc1cccc2ncccc12)c1ccc2c(c1)OCCO2
Result :: 586

Query :: Then Cc1ccc(OCc2nnc(SCC(=O)Nc3ccc4c(c3)OCO4)n2C)cc1 ?
Result :: 325

====

assay: endothelial E-selectin expression blockers – imaging, HUVEC, immunofluorescence, MLSMR starter and 10KST1 sets, primary screen (AID 487); settings: HUVEC TNFalpha-induced E-selectin immunofluorescence imaging, at 2 µM; measured here: cell number, toxicity;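 as to nuclei count: 100% = median nuclei count of all wells on the same plate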
nuclei count values, listed per item
Enter the number, and then the unit.

Consider the worked cases shown below.
compound | nuclei count
COc1cc(CC(=O)NCc2ccc3c(c2)OCO3)cc(OC)c1OC | 124%
COc1ccc(C2=CC(=O)OC3(CCCCC3)O2)cc1 | 115%

Query :: State the recorded nuclei count for this entry: O=C(CSc1nnc(-c2ccc(Br)cc2)n1C1CCCCC1)N1CCCC1
Result :: 81.3%

Query :: Please give the result for CCOC(=O)C1CCCN(C(=O)c2ccc3c(=O)n(CCOC)c(=S)[nH]c3c2)C1 (stereo not drawn) too.
Result :: 91.8%

Query :: Then CCN(CC)c1ccc(C(=O)n2cnc3ccccc32)cc1 ?
Result :: 128%

Query :: What do we get for Cc1ccc(S(=O)(=O)Cn2nnnc2CN(Cc2ccco2)Cc2cccs2)cc1 ?
Result :: 133%

Query :: Continue with Cc1occc1C(=O)Nc1ccc(S(=O)(=O)N2CCN(C)CC2)cc1
Result :: 107%

Query :: Entry to check: Cc1nc(SCc2ccc(Br)cc2)[nH]c(=O)c1C
Result :: 117%

Query :: Here is the next compound: O=C(C1CCCO1)N1CCN(C(c2ccccc2)c2ccccc2)CC1 (stereo not drawn)
Result :: 117%

====

target: Voltage-gated potassium channel subunit beta-2 (Rattus norvegicus); test: enhancers of rat Kvbeta2 NADPH turnover – biochemical, NADPH fluorescence, primary screen (AID 623); details: Recombinant KvBeta, NADPH fluorescence decrease slope, 10 min; at 10 µM; stronger effect = lower value;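 also: fluorescence intensity change per second fitted from 20 to 320 s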
Listed here: items and their measured NADPH fluorescence slope.
Lab note: jot down the number only; don't add units.

These solved cases illustrate the format of a correct answer.
molecule | target.of.assay | reported.endpoint | value.measured
COC(=O)c1ccc(COc2ccc(C3C4=C(CCCC4=O)Nc4onc(C)c43)cc2)cc1 (stereo not drawn) | Voltage-gated potassium channel subunit beta-2 (Rattus norvegicus) | NADPH fluorescence slope | -1.7e-05
Cc1ccc(-c2nnn(CC(=O)N(CC3CCCO3)C(C(=O)NC(C)(C)C)c3ccc(F)cc3)n2)o1 (stereo not drawn) | Voltage-gated potassium channel subunit beta-2 (Rattus norvegicus) | NADPH fluorescence slope | -3.8e-05
O=C(NC1CCCCCC1)C1CCCN(S(=O)(=O)c2cccs2)C1 (stereo not drawn) | Voltage-gated potassium channel subunit beta-2 (Rattus norvegicus) | NADPH fluorescence slope | -6.4e-05
CC(Sc1n[nH]c(=O)[nH]c1=O)C(=O)OCc1ccccc1 (stereo not drawn) | Voltage-gated potassium channel subunit beta-2 (Rattus norvegicus) | NADPH fluorescence slope | -2.2e-05
COc1ccccc1NC(=O)N(Cc1ccco1)Cc1cc2cccc(C)c2[nH]c1=O | Voltage-gated potassium channel subunit beta-2 (Rattus norvegicus) | NADPH fluorescence slope | -5.6e-05
CC1CN(C2CCCCC2)c2nc3c(c(=O)[nH]c(=O)n3C)n2C1 (stereo not drawn) | Voltage-gated potassium channel subunit beta-2 (Rattus norvegicus) | NADPH fluorescence slope | 3.4e-05
CC1(C)CC(=O)C(CC(=O)NC(=O)NCc2ccccc2)=C(O)C1 | Voltage-gated potassium channel subunit beta-2 (Rattus norvegicus) | NADPH fluorescence slope | 1e-05
CCOC(=O)CN1CC23C=CC(O2)C(C(=O)NCc2ccc(F)cc2)C3C1=O (stereo not drawn) | Voltage-gated potassium channel subunit beta-2 (Rattus norvegicus) | NADPH fluorescence slope | -1.1e-05
c1n[nH]c(SCCCCSc2ncn[nH]2)n1 | Voltage-gated potassium channel subunit beta-2 (Rattus norvegicus) | NADPH fluorescence slope | -7e-05
Cc1ccc(-c2cc(C(=O)NCc3ccc4c(c3)OCO4)no2)cc1 | Voltage-gated potassium channel subunit beta-2 (Rattus norvegicus) | NADPH fluorescence slope | -6.4e-05

Shifting focus to the molecule that follows.
Query :: # NADPH fluorescence slope lookup, item O=C(CCCN1C(=O)c2ccccc2C1=O)NCc1cccnc1
Result :: -2.4e-06

====

assay: TLR3 IRF3 reporter activation blockers – cell-based, poly I:C stimulus, luciferase, 10K MLSCN set, primary screen (AID 602277); settings: HEK293-TLR3 RL24 IRF3 luciferase reporter, at 10 µM, stronger effect = higher value
# inhibition values compiled below
# number only, unit % dropped from output

Consider the worked cases shown below.
molecule | inhibition, %
COc1ccc(NS(=O)(=O)c2coc(C(N)=O)c2)cc1Cl | 29.4
Cc1cc(C)n(Cc2nc3ccccc3n2C)n1 | 36.3
CC12CN3CC(C)(CN(C1)C3c1ccc(Br)cc1)C2 (centres undefined) | 13.4

// next entry
Query :: Consider the molecule shown here: CCOC(=O)c1nnn(-c2nonc2N)c1CN1CCc2ccccc2C1 What is its recorded inhibition?
Result :: 24.5

====

assay: endothelial E-selectin expression blockers – imaging, HUVEC, immunofluorescence, MLSMR starter and 10KST1 sets, primary screen (AID 487); conditions: HUVEC TNFalpha-induced E-selectin immunofluorescence imaging, at 2 µM; stronger effect = higher value;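 as to inhibition: signal is fraction of cell area covered by stained E-selectin grains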
Param threshold (-60%) applies to inhibition; output Y when value >= threshold, N when value < threshold.

Answered cases to consult:
molecule | assigned.class
CCOC(=O)c1[nH]c(C)c(C(=O)Nc2ccccc2C)c1C | Y
Cc1nn(-c2ccccc2)c2c1C(c1c(C)[nH]c(C#N)c1C)C(C#N)=C(N)O2 (centres undefined) | Y
Cn1c(=O)[nH]c(=O)c2c1nc(Br)n2CCCSc1nc2ccccc2o1 | Y
CCC(=O)Nc1ccc(NC(=O)CSc2nnnn2C(C)C)cc1 | N
COc1ccc(-n2cnnc2SCCC#N)cc1 | N

Now take the following molecule into account.
Query :: # bool: inhibition of Cc1ccc(OC(=O)NC2CCS(=O)(=O)C2)cc1C (centres undefined) >= -60%
Result :: N

====

assay: blockers of RIG-like receptor reporter activation – cell-based, Sendai virus stimulus, luciferase, 10K MLSCN set, TLR/RLR signaling modifier project, primary screen (AID 602276); details: HEK293 RL24 IRF3 luciferase reporter, at 10 µM, stronger effect = higher value;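 also: firefly luciferase from ISG56 promoter only with Renilla not read in this screen; 0% = Sendai virus plus DMSO and 100% = medium plus DMSO without virus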
reported.endpoint: inhibition (%)
Write down the numeric answer in % and omit the unit.

compound | inhibition [%]
CCOc1ccccc1NC(=O)C1CCCN1C(=O)OCc1ccccc1 (stereo not drawn) | 4.99
CCOC(=O)N1CCC(NC(=O)c2ccc3c(c2)N(C)CCS3)CC1 | 13

Switching to the query record.
Query :: Which value of inhibition has been reported for CCN(CC)c1ccc(C(=O)n2cnc3ccccc32)cc1 in the records?
Result :: 25.3

====

target: Voltage-gated potassium channel subunit beta-2 (Rattus norvegicus) (UniProt P62483); test: inhibitors of rat Kvbeta2 reductase activity – biochemical, NADPH fluorescence, primary screen (AID 622); conditions: recombinant KvBeta, 4-cyanobenzaldehyde reduction, at 10 µM, stronger effect = higher value;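 also: slope of raw intensity against log time taken from 70 to 1610 s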
Sequence (P62483 whole entry, looked up): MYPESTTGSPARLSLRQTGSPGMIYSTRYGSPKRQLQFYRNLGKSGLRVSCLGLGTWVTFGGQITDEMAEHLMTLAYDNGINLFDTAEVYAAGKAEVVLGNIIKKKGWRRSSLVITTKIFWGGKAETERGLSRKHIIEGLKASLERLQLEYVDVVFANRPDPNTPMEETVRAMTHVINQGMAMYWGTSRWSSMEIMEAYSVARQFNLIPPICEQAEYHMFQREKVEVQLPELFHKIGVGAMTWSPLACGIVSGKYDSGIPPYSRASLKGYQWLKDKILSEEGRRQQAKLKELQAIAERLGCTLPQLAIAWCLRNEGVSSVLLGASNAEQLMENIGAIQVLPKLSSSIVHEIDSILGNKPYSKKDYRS
Below, each entry is listed alongside its reported fluorescence slope.
# answer = number (no unit)

compound | value.measured
CCSc1nnc(-c2ccc(OC)cc2)o1 | -0.242
COc1ccccc1-c1nnc(SCC(=O)N2CC(C)CC(C)C2)o1 (stereo not given) | -0.411
CN(C(=O)C1CCOC1)c1nnc(-c2cccnc2)s1 (stereo not given) | -0.502
O=C(Nc1ccc(F)cc1)NC1CCN(Cc2nnnn2Cc2ccco2)CC1 | -0.501
Cn1c(=O)c2c(nc(NCCCO)n2Cc2cccc(Br)c2)n(C)c1=O | -0.349

Query :: What measured fluorescence slope is associated with CCOC(=O)N1CCN(C(=O)C2CC(=O)N(Cc3ccc(OC)cc3)C2)CC1 (stereo not given) on Voltage-gated potassium channel subunit beta-2 (Rattus norvegicus) (UniProt P62483)?
Result :: -0.566

Query :: Moving on to O=C1NC(c2ccccc2)(C(F)(F)F)SC2=CCCCCN12 (stereo not given)
Result :: -0.545

====

assay: reduction of polyQ htt aggregates in cells – imaging, exon1htt(103Q)mCFP cells, high-content imaging, primary screen (AID 483); conditions: exon1htt(103Q)mCFP cell line, aggregate imaging, at 2 µM; measured here: cell count, toxicity;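 also: compound exposure lasted 3 days before fixation; percent of the per-plate median nuclei count of sample wells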
reported.endpoint: nuclei count (%)
Answer in %, number only, no unit symbol.

compound | nuclei count / %
Cc1cnc(C(=O)Nc2ccccc2-n2cccc2)cn1 | 107
CCOc1ccc(C2C(C(=O)OC)=CN(CCOC)C=C2C(=O)OC)cc1 | 105
O=C(Nc1c(-c2ccccc2)nc2ccccn12)c1ccco1 | 103

Query :: Returns the measured nuclei count for the input compound. Input: COCCOC(=O)C1=C(N)OC2=C(C(=O)CC(C)(C)C2)C1c1cccnc1 (centres undefined)
Result :: 139

Query :: Next record, please: CCN(C#N)c1nc(NC(C)C)nc(NC(C)C)n1
Result :: 100

Query :: Same thing, different compound: Nc1nc2sc3c(c2c(=O)s1)CCCC3
Result :: 55.3

Query :: What would you report for CCCC(=O)Nc1ccc(NC(=O)C2CC2)cn1 ?
Result :: 99.8

Query :: Continue with Cc1cc(C)c(C#N)c(SCC(=O)Nc2ccc(S(=O)(=O)Nc3onc(C)c3C)cc2)n1
Result :: 103

Query :: Can you check C=CCn1c(SCc2cc(=O)n3ccsc3n2)nnc1C1CCCCC1 next?
Result :: 104

Query :: Ok, now Cc1cc(C(=O)Nc2c(F)cc(F)cc2Br)no1
Result :: 94.4

Query :: Next: CCOC(=O)c1nnc2cc(-c3ccc(Br)cc3)nn2c1C
Result :: 98.8

Query :: Try the compound COc1ccccc1C1N(c2ccc(F)cc2)C(=O)C2CCCN21 (centres undefined)
Result :: 84.3

Query :: Try this compound next: CS(=O)(=O)N(CC(=O)Nc1cccc(F)c1)Cc1ccccc1
Result :: 107
